Test system: NADPH oxidase
Test: Inhibitory activity on ROS production derived from NADPH oxidase (HUVECs, nitrotetrazolium blue)
Assay type: cell-based, Human
Details: 1.0 μM test compound, 25 mM glucose, 200 μM NADPH, 2 hours
measured.attribute: Inh(%) ROS production inhibition rate

{"compound": "Cc1c(COc2cccc(OCC3CCOCC3)c2)[nH]c2ccccc2c1=O [Example 2]", "test.result": 91.9}
{"compound": "Cc1c(COc2cccc(N3CCC(C)(O)CC3)c2)[nH]c2ccccc2c1=O [Ex 199]", "test.result": 93.1}
{"compound": "Cc1c(COc2ccc3c(c2)N(C(=O)CC2CCOCC2)CCC3)[nH]c2ccc(F)cc2c1=O [Ex 166]", "test.result": 84.3}
{"compound": "COCCc1ccc(OCCCCOCc2[nH]c3ccccc3c(=O)c2C)cc1 [Ex 50]", "test.result": 80.5}

====

Test system: NADPH oxidase
Assay: Inhibitory activity on ROS production derived from NADPH oxidase (HUVECs, nitrotetrazolium blue)
Format: cell-based, Human
Conditions: 1.0 μM test compound, 25 mM glucose, 200 μM NADPH, 2 hours
List of Inh(%) ROS production inhibition rate values.
measured.attribute: Inh(%) ROS production inhibition rate

{"record.smiles": "CCCCCC(=O)N1CCC(OCc2[nH]c3ccc(F)cc3c(=O)c2C)CC1", "measured.attribute": "Inh(%) ROS production inhibition rate", "test.result": 77.7}
{"record.smiles": "Cc1c(COCCN(C(=O)C2CCOCC2)C2CCCCC2)[nH]c2ccccc2c1=O", "measured.attribute": "Inh(%) ROS production inhibition rate", "test.result": 66.3}
{"record.smiles": "Cc1c(COc2cc(OCCC(C)(C)O)ccn2)[nH]c2ccccc2c1=O", "measured.attribute": "Inh(%) ROS production inhibition rate", "test.result": 84.7}
{"record.smiles": "CCCCCCCS(=O)(=O)Cc1[nH]c2ccccc2c(=O)c1C", "measured.attribute": "Inh(%) ROS production inhibition rate", "test.result": 99.1}
{"record.smiles": "CCOC(=O)N1CCC(CCc2[nH]c3ccccc3c(=O)c2C)CC1", "measured.attribute": "Inh(%) ROS production inhibition rate", "test.result": 118.2}

====

List of Inh(%) ROS production inhibition rate values.
Test system: NADPH oxidase
Assay: Inhibitory activity on ROS production derived from NADPH oxidase (HUVECs, nitrotetrazolium blue)
Format: cell-based, Human
Conditions: 1.0 μM test compound, 25 mM glucose, 200 μM NADPH, 2 hours
measured.attribute: Inh(%) ROS production inhibition rate

{"record.smiles": "Cc1c(COc2cccc(N3CCC(O)CC3)c2)[nH]c2ccccc2c1=O", "test.result": 97.5}
{"record.smiles": "Cc1c(COC(=O)NCC2CCCCC2)[nH]c2ccccc2c1=O", "test.result": 118.8}
{"record.smiles": "Cc1c(COc2cc(OCCC3CCOCC3)ccn2)[nH]c2ccccc2c1=O", "test.result": 91.5}
{"record.smiles": "Cc1c(CN2CCc3cc(OCC4CCOCC4)ccc3C2)[nH]c2ccccc2c1=O", "test.result": 69.5}
{"record.smiles": "Cc1c(COC(=O)Nc2cccc(Cc3ccccc3)c2)[nH]c2ccccc2c1=O", "test.result": 67.3}

====

{"record.smiles": "Cc1c(COc2ccc3c(c2)CCN(C(=O)CC(C)(C)O)C3)[nH]c2ccccc2c1=O", "melting point": "135 to 138 °C"}
{"record.smiles": "Cc1c(COc2cccc(OCC3CCOCC3)c2)[nH]c2ccccc2c1=O", "melting point": "200 to 202 °C"}
{"record.smiles": "Cc1c(COc2cccc(N3CCC(OCCC(C)(C)O)CC3)c2)[nH]c2ccccc2c1=O", "melting point": "160 to 163 °C"}
{"record.smiles": "CCOC(=O)N[C@H]1CC[C@H](OCc2[nH]c3ccccc3c(=O)c2C)CC1", "melting point": "268 to 271 °C"}
{"record.smiles": "Cc1c(COc2cccc(N3CCOCC3=O)c2)[nH]c2ccccc2c1=O", "melting point": "221 to 223 °C"}

====

List of melting point values.

{"record.smiles": "CCCCCCCS(=O)(=O)Cc1[nH]c2ccccc2c(=O)c1C", "melting point": "> 310 °C (dec.)"}
{"record.smiles": "CCS(=O)(=O)N[C@H]1CC[C@H](OCc2[nH]c3ccccc3c(=O)c2C)CC1", "melting point": "245 to 247 °C"}
{"record.smiles": "Cc1c(COc2cccc(OCC3CCOCC3)n2)[nH]c2ccccc2c1=O", "melting point": "221 to 223 °C"}
{"record.smiles": "CCOC(=O)N1CCC(CCc2[nH]c3ccccc3c(=O)c2C)CC1", "melting point": "211 to 213 °C"}
{"record.smiles": "Cc1c(COc2cc(OCCC(C)(C)O)cc(N3CCOCC3)c2)[nH]c2ccccc2c1=O", "melting point": "189 to 190 °C"}
{"record.smiles": "Cc1c(COc2cc(OCCC(C)(C)O)ccn2)[nH]c2ccccc2c1=O", "melting point": "127 to 130 °C"}
{"record.smiles": "CCS(=O)(=O)N1CCC(CCc2[nH]c3ccccc3c(=O)c2C)CC1", "melting point": "225 to 228 °C"}
{"record.smiles": "CCCCCC(=O)N1CCN(Cc2[nH]c3ccccc3c(=O)c2C)CC1", "melting point": "171 to 173 °C"}
{"record.smiles": "Cc1c(COC2CCOCC2)[nH]c2ccccc2c1=O", "melting point": "194 to 196 °C"}
{"record.smiles": "Cc1c(COCCCCOCCC2CC2)[nH]c2ccccc2c1=O", "melting point": "155 to 157 °C"}
{"record.smiles": "Cc1c(COc2cc(OCCC3CCOCC3)ccn2)[nH]c2ccccc2c1=O", "melting point": "137 to 138 °C"}
{"record.smiles": "Cc1cccc(CNC(=O)OCc2[nH]c3ccccc3c(=O)c2C)c1", "melting point": "240 to 243 °C"}
{"record.smiles": "Cc1c(COc2ccc(CCC3(O)CCCC3)cc2)[nH]c2ccccc2c1=O", "melting point": "200 to 202 °C"}
{"record.smiles": "Cc1c(CCc2cc(OCC3CCOCC3)ccn2)[nH]c2ccccc2c1=O", "melting point": "212 to 215 °C"}

Each recorded value in this set is attributed to patent US8367702B2.
